target: c-Met kinase (recombinant c-Met) (Homo sapiens); construct: 0.27 nM recombinant c-Met; assay: In vitro kinase assay I (homogeneous time-resolved fluorescence tyrosine kinase assay)
Sequence (P08581 25-1390): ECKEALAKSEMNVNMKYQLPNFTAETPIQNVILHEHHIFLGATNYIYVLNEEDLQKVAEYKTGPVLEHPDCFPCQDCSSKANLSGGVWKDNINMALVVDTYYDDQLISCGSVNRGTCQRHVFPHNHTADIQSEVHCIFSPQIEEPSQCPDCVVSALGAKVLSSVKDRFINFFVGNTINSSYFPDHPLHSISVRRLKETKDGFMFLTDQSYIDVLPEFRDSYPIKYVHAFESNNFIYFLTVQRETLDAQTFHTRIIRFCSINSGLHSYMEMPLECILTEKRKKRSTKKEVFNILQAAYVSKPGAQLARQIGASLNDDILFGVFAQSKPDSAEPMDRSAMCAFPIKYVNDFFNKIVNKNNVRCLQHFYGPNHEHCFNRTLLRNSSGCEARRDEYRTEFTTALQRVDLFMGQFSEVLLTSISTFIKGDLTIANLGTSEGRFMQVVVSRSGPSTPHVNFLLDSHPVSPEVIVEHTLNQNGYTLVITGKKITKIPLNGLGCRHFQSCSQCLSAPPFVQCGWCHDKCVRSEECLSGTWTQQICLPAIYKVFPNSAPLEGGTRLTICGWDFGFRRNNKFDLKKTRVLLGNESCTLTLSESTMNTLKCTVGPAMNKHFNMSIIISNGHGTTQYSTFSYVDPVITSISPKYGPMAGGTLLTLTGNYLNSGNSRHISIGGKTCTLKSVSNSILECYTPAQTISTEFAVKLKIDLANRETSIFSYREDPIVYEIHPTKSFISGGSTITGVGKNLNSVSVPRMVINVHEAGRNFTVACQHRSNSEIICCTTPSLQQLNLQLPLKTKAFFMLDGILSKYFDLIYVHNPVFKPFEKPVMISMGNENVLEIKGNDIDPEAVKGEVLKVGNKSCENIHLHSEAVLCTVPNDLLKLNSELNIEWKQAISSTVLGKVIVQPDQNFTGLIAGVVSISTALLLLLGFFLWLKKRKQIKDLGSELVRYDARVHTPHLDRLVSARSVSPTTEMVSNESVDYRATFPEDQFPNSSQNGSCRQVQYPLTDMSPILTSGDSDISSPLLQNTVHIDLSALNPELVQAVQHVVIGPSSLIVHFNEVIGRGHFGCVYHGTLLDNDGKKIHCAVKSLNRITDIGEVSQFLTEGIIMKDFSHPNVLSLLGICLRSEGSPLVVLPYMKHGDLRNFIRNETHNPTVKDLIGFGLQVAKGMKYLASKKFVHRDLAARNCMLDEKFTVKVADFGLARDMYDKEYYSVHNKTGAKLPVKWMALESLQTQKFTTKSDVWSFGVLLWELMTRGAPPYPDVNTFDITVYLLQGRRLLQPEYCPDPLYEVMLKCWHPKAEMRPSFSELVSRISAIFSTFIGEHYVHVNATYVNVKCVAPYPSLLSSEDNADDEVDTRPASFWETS
pIC50: −log10 of the molar value.
PROPERTY NAME: pIC50

>  <MOLECULE>
CCOCc1cnc(-c2cccc(C(C)c3nn(-c4cnn(C)c4)ccc3=O)c2)nc1 (racemic)

>  <VALUE>
> 7.00

$$$$
>  <MOLECULE>
COc1cnc(-c2cccc(Cc3nn(-c4cncc(F)c4)ccc3=O)c2)nc1

>  <VALUE>
> 7.00

$$$$
>  <MOLECULE>
Cn1cc(-n2ccc(=O)c(Cc3cccc(-c4ncc(OCC5(CO)COC5)cn4)c3)n2)cn1

>  <VALUE>
> 7.00

$$$$
>  <MOLECULE>
COCCOC(=O)Nc1cccc(Cc2nn(-c3cc(F)cc(Cl)c3)ccc2=O)c1

>  <VALUE>
> 7.00

$$$$

// lookup pIC50 for C[C@H](O)[C@H](C)Oc1cnc(-c2cccc(Cc3nn(-c4cnn(C)c4)ccc3=O)c2)nc1 (single isomer, unassigned) > 7.00

// lookup pIC50 for Cn1cc(-n2ccc(=O)c(Cc3ccc4[nH]ncc4c3)n2)cn1 6.00 to 7.00

// lookup pIC50 for CCn1cc(-n2ccc(=O)c(Cc3cccc(-c4ncc(OCC(C)(C)O)cn4)c3)n2)cn1 > 7.00

// lookup pIC50 for Cn1cc(-n2ccc(=O)c(Cc3cccc(-c4ncc(NC(=O)C5CCCO5)cn4)c3)n2)cn1 (racemic) > 7.00

Origin of the recorded values: patent US20120264735A1
